Provenance of the data: ChEMBL document CHEMBL1127629

# Test system: Nucleic Acid
# assay: Evaluated for thermal denaturation at pH 6.3 against poly(A)-poly(U) synthetic RNA oligonucleotide
# Assay type: nucleic-acid assay
Record form. Attribute: ΔTm. Fill in for each entry.
// keep it numeric: no unit symbol after the value

For the molecule `c1ccc(CN2CCN(CCCN3CCN(Cc4ccccc4)CC3)CC2)cc1` , what ΔTm is on record? 0

For the molecule `N#CC1CCN(CCCN2CCC(C#N)CC2)CC1` , what ΔTm is on record? 0

For the molecule `c1cc(CN2CCC(C3=NCCN3)CC2)ccc1CN1CCC(C2=NCCN2)CC1` , what ΔTm is on record? 16.2

For the molecule `C(CC1CCNCC1)CC1CCNCC1` , what ΔTm is on record? 0

For the molecule `c1cc(CN2CCNCC2)ccc1CN1CCNCC1` , what ΔTm is on record? 0

For the molecule `C1CCN(C2CCN(CCCN3CCC(N4CCCCC4)CC3)CC2)CC1` , what ΔTm is on record? 9.8

For the molecule `OC1CCN(Cc2ccc(CN3CCC(O)CC3)cc2)CC1` , what ΔTm is on record? 0

For the molecule `c1cc(CN2CCN(Cc3ccc(CN4CCNCC4)cc3)CC2)ccc1CN1CCNCC1` , what ΔTm is on record? 0

For the molecule `CN1CCN(CCCN2CCN(C)CC2)CC1` , what ΔTm is on record? 0

For the molecule OCC1CCCN(CCCN2CCCC(CO)C2)C1 (stereo not drawn) , what ΔTm is on record? 0.4

For the molecule `C1CCN(CCN2CCN(CCN3CCCCC3)CC2)CC1` , what ΔTm is on record? 0

For the molecule `c1cc(CN2CCC(N3CCCCC3)CC2)cc(CN2CCC(N3CCCCC3)CC2)c1` , what ΔTm is on record? 8

For the molecule `C1CCN(CCCN2CCCCC2)CC1` , what ΔTm is on record? 0

For the molecule `c1cc(CN2CCC(N3CCCCC3)CC2)ccc1CN1CCC(N2CCCCC2)CC1` , what ΔTm is on record? 8.1

For the molecule `C(CN1CCC(C2=NCCN2)CC1)CN1CCC(C2=NCCN2)CC1` , what ΔTm is on record? 18.1

For the molecule `OCC1CCN(CCCN2CCC(CO)CC2)CC1` , what ΔTm is on record? 0.2

For the molecule `c1cnc(N2CCN(Cc3cccc(CN4CCN(c5ncccn5)CC4)c3)CC2)nc1` , what ΔTm is on record? 0

For the molecule `c1cnc(N2CCN(Cc3ccc(CN4CCN(c5ncccn5)CC4)cc3)CC2)nc1` , what ΔTm is on record? 0
